# measured-target: T1, alpha4beta7 on 38C13 alpha4+ murine lymphoma cells transfected with integrin beta7 (38C13beta7 cells) (murine, UniProt Q00651 41-1039; P26011 20-806)
# T1 construct: whole, on cells; also called 38C13-beta7 expressing cells; murine beta7-containing receptor
# T1 sequence (Q00651 41-1039, chain 1 of 2): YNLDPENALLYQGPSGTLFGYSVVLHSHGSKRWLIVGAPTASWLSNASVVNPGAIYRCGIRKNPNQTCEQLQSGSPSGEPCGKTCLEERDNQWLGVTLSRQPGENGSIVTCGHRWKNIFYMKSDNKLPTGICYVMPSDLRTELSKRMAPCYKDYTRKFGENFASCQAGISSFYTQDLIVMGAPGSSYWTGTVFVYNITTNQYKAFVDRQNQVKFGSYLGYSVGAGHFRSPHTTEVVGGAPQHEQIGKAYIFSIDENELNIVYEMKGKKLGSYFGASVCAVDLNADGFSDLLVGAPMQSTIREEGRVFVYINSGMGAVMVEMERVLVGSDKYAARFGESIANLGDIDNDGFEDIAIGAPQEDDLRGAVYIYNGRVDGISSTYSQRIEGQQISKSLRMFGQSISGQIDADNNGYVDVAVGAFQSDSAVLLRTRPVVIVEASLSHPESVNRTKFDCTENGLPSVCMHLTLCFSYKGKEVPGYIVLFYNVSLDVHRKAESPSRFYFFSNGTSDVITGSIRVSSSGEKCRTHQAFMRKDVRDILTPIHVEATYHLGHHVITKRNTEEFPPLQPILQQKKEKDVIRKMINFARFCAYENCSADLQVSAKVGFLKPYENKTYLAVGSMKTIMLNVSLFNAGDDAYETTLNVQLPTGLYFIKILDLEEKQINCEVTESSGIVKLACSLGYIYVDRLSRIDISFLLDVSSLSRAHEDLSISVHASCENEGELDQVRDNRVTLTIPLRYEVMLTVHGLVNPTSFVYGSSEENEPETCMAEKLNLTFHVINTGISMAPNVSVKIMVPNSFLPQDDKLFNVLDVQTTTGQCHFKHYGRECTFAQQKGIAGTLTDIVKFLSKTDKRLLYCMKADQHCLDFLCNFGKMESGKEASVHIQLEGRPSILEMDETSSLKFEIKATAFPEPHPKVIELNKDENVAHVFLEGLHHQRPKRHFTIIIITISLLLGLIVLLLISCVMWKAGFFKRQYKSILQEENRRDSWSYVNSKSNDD
# T1 sequence (P26011 20-806, chain 2 of 2): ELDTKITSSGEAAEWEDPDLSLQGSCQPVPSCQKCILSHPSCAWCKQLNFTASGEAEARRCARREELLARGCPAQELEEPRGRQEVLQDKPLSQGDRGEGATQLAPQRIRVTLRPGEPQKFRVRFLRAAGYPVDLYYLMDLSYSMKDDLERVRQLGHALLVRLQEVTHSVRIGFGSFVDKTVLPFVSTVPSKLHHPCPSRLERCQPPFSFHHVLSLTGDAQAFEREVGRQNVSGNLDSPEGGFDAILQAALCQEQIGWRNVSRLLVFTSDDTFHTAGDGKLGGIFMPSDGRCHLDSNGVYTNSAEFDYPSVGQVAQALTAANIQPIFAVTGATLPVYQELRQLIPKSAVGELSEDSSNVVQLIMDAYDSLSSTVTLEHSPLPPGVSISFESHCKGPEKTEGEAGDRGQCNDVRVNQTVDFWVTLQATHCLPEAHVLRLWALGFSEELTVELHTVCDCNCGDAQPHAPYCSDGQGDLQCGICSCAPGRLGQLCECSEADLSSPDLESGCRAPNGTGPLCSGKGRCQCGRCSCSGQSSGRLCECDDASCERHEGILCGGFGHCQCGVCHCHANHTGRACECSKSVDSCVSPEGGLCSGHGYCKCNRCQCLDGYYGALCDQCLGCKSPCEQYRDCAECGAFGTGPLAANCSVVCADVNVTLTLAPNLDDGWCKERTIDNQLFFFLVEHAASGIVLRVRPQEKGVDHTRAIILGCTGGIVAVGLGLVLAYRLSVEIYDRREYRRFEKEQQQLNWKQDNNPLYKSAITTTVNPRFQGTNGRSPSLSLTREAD
# assay-summary: cell adhesion inhibition, 38C13beta7 cells on coated muVCAM-1-Ig, experiment 1 of 2
assay-endpoint: pIC50
Quick note: pIC50 values are minus log10 of concentrations in mol/L.

Kindly note the recorded pIC50 for Variant hu504.16, IgG (antibody, name in Kabat numbering, V domains shown) VH: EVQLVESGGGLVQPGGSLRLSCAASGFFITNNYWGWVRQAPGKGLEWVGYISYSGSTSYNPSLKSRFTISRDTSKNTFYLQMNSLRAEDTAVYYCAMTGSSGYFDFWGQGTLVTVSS VL: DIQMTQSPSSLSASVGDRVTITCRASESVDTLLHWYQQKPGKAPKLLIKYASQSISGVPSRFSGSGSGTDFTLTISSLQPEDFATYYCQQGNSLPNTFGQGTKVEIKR , which is 9.08

Kindly note the recorded pIC50 for Variant hu504.32, IgG (antibody, V domains shown, methionine at heavy chain position 94; also called hu504.32M; 504.32M) VH: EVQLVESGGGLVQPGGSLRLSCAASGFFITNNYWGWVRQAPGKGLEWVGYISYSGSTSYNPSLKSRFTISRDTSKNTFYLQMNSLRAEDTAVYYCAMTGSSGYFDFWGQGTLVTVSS VL: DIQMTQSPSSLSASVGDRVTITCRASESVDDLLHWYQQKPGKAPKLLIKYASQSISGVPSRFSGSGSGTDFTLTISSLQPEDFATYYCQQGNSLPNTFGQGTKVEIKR , which is 9.25

Kindly note the recorded pIC50 for Variant hu504.5, IgG (antibody, name in Kabat numbering, V domains shown) VH: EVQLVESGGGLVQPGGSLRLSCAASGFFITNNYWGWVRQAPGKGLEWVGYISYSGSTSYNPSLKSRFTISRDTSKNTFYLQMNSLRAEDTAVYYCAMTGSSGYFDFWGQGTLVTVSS VL: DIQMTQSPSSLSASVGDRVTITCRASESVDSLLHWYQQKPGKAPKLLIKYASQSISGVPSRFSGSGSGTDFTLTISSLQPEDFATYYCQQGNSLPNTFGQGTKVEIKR , which is 9.12

Kindly note the recorded pIC50 for Rat Fib504 (antibody FIB504.64 produced by hybridoma ATCC HB-293) (antibody, V domains shown, Whole rat antibody in the cell adhesion assays; also called rat anti-mouse beta7 antibody) VH: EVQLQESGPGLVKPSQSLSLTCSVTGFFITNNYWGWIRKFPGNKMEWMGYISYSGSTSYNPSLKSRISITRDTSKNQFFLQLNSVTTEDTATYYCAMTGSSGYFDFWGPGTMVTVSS VL: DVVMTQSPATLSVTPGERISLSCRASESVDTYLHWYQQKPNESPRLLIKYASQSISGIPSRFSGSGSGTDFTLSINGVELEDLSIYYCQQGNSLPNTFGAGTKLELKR , which is 9.07
